Hey, just so you know, these numbers are from patent US20080176857A1.

target: UniProtKB Q9H244; test: [33P]-2MeS-ADP binding to recombinant human P2Y12 membranes (Assay 3); design: expressed in transfected cells; host or cells: HEK cells; details: at highest concentration tested, 10 μM

>  <Compound>
CCc1cc2c(N3CCN(C(=O)c4ccc(-c5ccccc5)cc4)CC3)nc(Cl)nc2s1

>  <Measure unit>
%

>  <% Inhibition>
98.24

$$$$
>  <Compound>
C=CCSc1nc(N2CCN(C(=O)Cc3ccccc3)CC2)c2cc(CC)sc2n1

>  <Measure unit>
%

>  <% Inhibition>
79.53

$$$$
>  <Compound>
CCc1cc2c(N3CCN(C(=O)Cc4ccccc4)CC3)nc(SC(C)C(C)=O)nc2s1 (stereo not shown)

>  <Measure unit>
%

>  <% Inhibition>
83.72

$$$$
>  <Compound>
CCc1cc2c(N3CCN(C(=O)Cc4ccccc4)CC3)nc(SCC(=O)Nc3ccccc3)nc2s1

>  <Measure unit>
%

>  <% Inhibition>
75.04

$$$$

---

molecular target: P2Y12 receptor (Homo sapiens, UniProt Q9H244); experiment: [33P]-2MeS-ADP binding to recombinant human P2Y12 membranes (Assay 3); set-up: expressed in transfected cells; host or cells: HEK cells; conditions: HEK cell membranes expressing human P2Y12, competition with 33P 2MeS-ADP
Sequence (Q9H244 whole entry): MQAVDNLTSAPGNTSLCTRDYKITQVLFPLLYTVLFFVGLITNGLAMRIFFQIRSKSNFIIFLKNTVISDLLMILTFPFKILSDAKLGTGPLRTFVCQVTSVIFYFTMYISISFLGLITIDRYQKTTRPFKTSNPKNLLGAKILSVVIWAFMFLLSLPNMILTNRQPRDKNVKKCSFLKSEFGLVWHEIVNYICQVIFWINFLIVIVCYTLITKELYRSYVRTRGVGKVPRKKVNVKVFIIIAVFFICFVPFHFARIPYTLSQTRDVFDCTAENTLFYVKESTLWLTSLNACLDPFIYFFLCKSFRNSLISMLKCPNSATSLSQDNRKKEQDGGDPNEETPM
Categories are assigned from the measured Ki using these intervals: low (below 200 nM), mid (200 nM to below 2000 nM), high (2000 nM or more)

>  <Compound>
C#CCCCC(=O)N1CCN(c2nc(SCC(=O)OC)nc3sc(CC)cc23)CC1

>  <Class name>
high

$$$$
>  <Compound>
CCCOc1ccc(C(=O)N2CCN(c3nc(SCC(=O)OC)nc4sc(CC)cc34)CC2)cc1

>  <Class name>
low

$$$$
>  <Compound>
CCc1cc2c(N3CCN(C(=O)c4cccc(C(F)(F)F)c4)CC3)nc(SCC(=O)OC)nc2s1

>  <Class name>
high

$$$$
>  <Compound>
CCc1cc2c(N3CCN(C(=O)c4ccc(-c5csnn5)cc4)CC3)nc(SCC(=O)OC)nc2s1

>  <Class name>
mid

$$$$
>  <Compound>
CCc1cc2c(N3CCN(C(=O)c4cccc(OC)c4)CC3)nc(SCC(=O)OC)nc2s1

>  <Class name>
high

$$$$
>  <Compound>
CCc1cc2c(N3CCN(C(=O)CC(C)CC(C)(C)C)CC3)nc(SCC(=O)OC)nc2s1 (stereo not shown)

>  <Class name>
high

$$$$
>  <Compound>
CCc1cc2c(N3CCN(C(=O)c4ccc(-c5ccccc5)cc4)CC3)nc(SCC(O)CO)nc2s1 (stereo not shown)

>  <Class name>
low

$$$$
>  <Compound>
CCc1cc2c(N3CCN(C(=O)c4ccccc4)CC3)nc(SCC(=O)OC)nc2s1

>  <Class name>
mid

$$$$
>  <Compound>
CCc1cc2c(N3CCN(C(=O)C4COc5ccccc5O4)CC3)nc(SCC(=O)OC)nc2s1 (stereo not shown)

>  <Class name>
mid

$$$$
>  <Compound>
CCc1cc2c(N3CCN(C(=O)c4ccc(C)cc4)CC3)nc(SCC(=O)OC)nc2s1

>  <Class name>
high

$$$$
>  <Compound>
CCc1cc2c(N3CCN(C(=O)c4ccc5ccoc5c4)CC3)nc(SCC(=O)OC)nc2s1

>  <Class name>
mid

$$$$
>  <Compound>
CCc1cc2c(N3CCN(C(=O)c4ccc(OC(F)(F)F)cc4)CC3)nc(SCC(=O)OC)nc2s1

>  <Class name>
high

$$$$
>  <Compound>
CCc1cc2c(N3CCN(C(=O)c4ccc(C(=O)OC)cc4)CC3)nc(SCC(=O)OC)nc2s1

>  <Class name>
high

$$$$
>  <Compound>
CCc1cc2c(N3CCN(C(=O)c4ccc(C(F)(F)F)cc4)CC3)nc(SCC(=O)OC)nc2s1

>  <Class name>
high

$$$$
>  <Compound>
CCc1cc2c(N3CCN(C(=O)c4ccc(-c5ccccc5)cc4)CC3)nc(SCCNC(C)=O)nc2s1

>  <Class name>
low

$$$$
>  <Compound>
CCc1cc2c(N3CCN(C(=O)c4ccc(-c5ccccc5)cc4)CC3)nc(SCCO)nc2s1

>  <Class name>
low

$$$$

---

A collection of compounds and their measured % Inhibition
biological target: UniProt Q9H244; experiment: [33P]-2MeS-ADP binding to recombinant human P2Y12 membranes (Assay 3); parameters: expressed in transfected cells; host or cells: HEK cells; conditions: at highest concentration tested, 10 μM
Observation type: % Inhibition (%)

>  <Compound>
CCc1cc2c(N3CCN(C(=O)Cc4ccccc4)CC3)nc(SCCc3ccncc3)nc2s1 [Example 26]

>  <Tested on>
UniProt Q9H244

>  <Observation type>
% Inhibition

>  <Number>
88.94

$$$$
>  <Compound>
CCc1cc2c(N3CCN(C(=O)Cc4ccccc4)CC3)nc(SCCNC(C)=O)nc2s1 [Example 15]

>  <Tested on>
UniProt Q9H244

>  <Observation type>
% Inhibition

>  <Number>
92.26

$$$$
>  <Compound>
CCc1cc2c(N3CCN(C(=O)c4cccc(-c5ccccc5)c4)CC3)nc(SCC(=O)OC)nc2s1 [Example 78]

>  <Tested on>
UniProt Q9H244

>  <Observation type>
% Inhibition

>  <Number>
87.73

$$$$
>  <Compound>
CCc1cc2c(N3CCN(C(=O)Cc4ccccc4)CC3)nc(SCC(N)=O)nc2s1 [Example 24]

>  <Tested on>
UniProt Q9H244

>  <Observation type>
% Inhibition

>  <Number>
92.16

$$$$
>  <Compound>
CCc1cc2c(N3CCN(C(=O)Cc4ccccc4)CC3)nc(SC[C@H](N)C(=O)OC)nc2s1 [Example 16]

>  <Tested on>
UniProt Q9H244

>  <Observation type>
% Inhibition

>  <Number>
87.82

$$$$
>  <Compound>
CCc1cc2c(N3CCN(C(=O)c4ccc(-c5ccccc5)cc4)CC3)nc(SCC(=O)OC)nc2s1 [Example 22]

>  <Tested on>
UniProt Q9H244

>  <Observation type>
% Inhibition

>  <Number>
90.70

$$$$
>  <Compound>
CCc1cc2c(N3CCN(C(=O)Cc4ccccc4)CC3)nc(S(=O)(=O)CC(=O)OC)nc2s1 [Example 8]

>  <Tested on>
UniProt Q9H244

>  <Observation type>
% Inhibition

>  <Number>
81.44

$$$$
>  <Compound>
CCc1cc2c(N3CCN(C(=O)Cc4ccccc4)CC3)nc(SCC(O)CO)nc2s1 (centres unmarked) [Example 12]

>  <Tested on>
UniProt Q9H244

>  <Observation type>
% Inhibition

>  <Number>
92.83

$$$$

---

target: P2Y12 receptor (Homo sapiens, UniProt Q9H244); test: [33P]-2MeS-ADP binding to recombinant human P2Y12 membranes (Assay 3); design: expressed in transfected cells; host or cells: HEK cells; conditions: at highest concentration tested, 10 μM
A collection of compounds and their measured inhibition at 10 µM

>  <Compound>
CCc1cc2c(N3CCN(C(=O)c4ccc(OC(F)(F)F)cc4)CC3)nc(SCC(=O)OC)nc2s1 [Example 49]

>  <inhibition at 10 µM / %>
56.8

$$$$
>  <Compound>
CCc1cc2c(N3CCN(C(=O)c4cccc(-c5ccccc5)c4)CC3)nc(SCC(=O)OC)nc2s1 [Example 78]

>  <inhibition at 10 µM / %>
92.6

$$$$
>  <Compound>
CCc1cc2c(N3CCN(C(=O)CC(=O)OC)CC3)nc(SCC(=O)OC)nc2s1 [Example 44]

>  <inhibition at 10 µM / %>
63.6

$$$$
>  <Compound>
CCc1cc2c(N3CCN(C(=O)c4ccccc4)CC3)nc(SCC(=O)OC)nc2s1 [Example 56]

>  <inhibition at 10 µM / %>
64.1

$$$$
>  <Compound>
C#CCCC(=O)N1CCN(c2nc(SCC(=O)OC)nc3sc(CC)cc23)CC1 [Example 37]

>  <inhibition at 10 µM / %>
78.3

$$$$
>  <Compound>
CCCOc1ccc(C(=O)N2CCN(c3nc(SCC(=O)OC)nc4sc(CC)cc34)CC2)cc1 [Example 71]

>  <inhibition at 10 µM / %>
89.3

$$$$
>  <Compound>
CCc1cc2c(N3CCN(C(=O)c4ccc(C(F)(F)F)cc4)CC3)nc(SCC(=O)OC)nc2s1 [Example 46]

>  <inhibition at 10 µM / %>
41.8

$$$$
>  <Compound>
CCc1cc2c(N3CCN(C(=O)CCC(=O)OC)CC3)nc(SCC(=O)OC)nc2s1 [Example 42]

>  <inhibition at 10 µM / %>
52.3

$$$$

---

A collection of molecules and their measured pKi
Biological target: UniProt Q9H244
Experiment: [33P]-2MeS-ADP binding to recombinant human P2Y12 membranes (Assay 3)
Design: expressed in transfected cells; host or cells: HEK cells
Details: HEK cell membranes expressing human P2Y12, competition with 33P 2MeS-ADP
Protocol: 3. Human P2Y12 Recombinant Cell Membrane Binding Assay with ^33P 2MeS-ADP. The ability of a test compound to bind to the P2Y12 receptor was evaluated in a recombinant cell membrane binding assay. […] Inhibition of binding of the labeled material was measured and correlated to the amount and potency of the test compound. […] The plates were incubated at room temperature for 1 hour. […] The filter plates were sealed, shaken for 30 minutes, and counted on a Top Count. […]
pKi: −log10 of the molar value.
Observation type: pKi

>  <Smiles repr>
CCc1cc2c(N3CCN(C(=O)c4csc(-c5ccccc5)n4)CC3)nc(SCC(=O)OC)nc2s1

>  <Observation type>
pKi

>  <Bound type>
=

>  <Number>
7.28

$$$$
>  <Smiles repr>
CCc1cc2c(N3CCN(C(=O)c4cccc5ccccc45)CC3)nc(SCC(=O)OC)nc2s1

>  <Observation type>
pKi

>  <Bound type>
<

>  <Number>
5.17

$$$$
>  <Smiles repr>
CCc1cc2c(N3CCN(C(=O)c4cccc(N(C)C)c4)CC3)nc(SCC(=O)OC)nc2s1

>  <Observation type>
pKi

>  <Bound type>
=

>  <Number>
5.43

$$$$
>  <Smiles repr>
CCc1cc2c(N3CCN(C(=O)c4cc(N(C)C)nc(N(C)C)n4)CC3)nc(SCC(=O)OC)nc2s1

>  <Observation type>
pKi

>  <Bound type>
=

>  <Number>
6.37

$$$$
>  <Smiles repr>
C#CCCCCC(=O)N1CCN(c2nc(SCC(=O)OC)nc3sc(CC)cc23)CC1

>  <Observation type>
pKi

>  <Bound type>
=

>  <Number>
6.82

$$$$
>  <Smiles repr>
CCc1cc2c(N3CCN(C(=O)CCC4CCCC4)CC3)nc(SCC(=O)OC)nc2s1

>  <Observation type>
pKi

>  <Bound type>
=

>  <Number>
5.56

$$$$
>  <Smiles repr>
CCc1cc2c(N3CCN(C(=O)CCCC(=O)OC)CC3)nc(SCC(=O)OC)nc2s1

>  <Observation type>
pKi

>  <Bound type>
=

>  <Number>
5.76

$$$$
>  <Smiles repr>
CCc1cc2c(N3CCN(C(=O)CCOC)CC3)nc(SCC(=O)OC)nc2s1

>  <Observation type>
pKi

>  <Bound type>
=

>  <Number>
5.58

$$$$
